Recorded values, source PubChem BioAssay (NCI).

test system: CAKI-1 renal; test: NCI-60 one-dose screen, 48 h (100 = growth as untreated, 0 = no growth, -100 = all killed); conditions: 10 µM
About 83,000 compounds went through this panel and 20% of them were active in at least one assay; those are over-represented in the sample as a whole.
READOUT KIND: growth (%)
Express your answer in %, writing the number without its unit.

Specify growth for C[C@]12CC[C@@H]3c4ccc(O)cc4C[C@@H](O)[C@H]3[C@@H]1CC[C@@H]2O , system CAKI-1 renal.
87.6

Specify growth for O=C1/C(=C/c2ccc([N+](=O)[O-])o2)Oc2ccccc21 , system CAKI-1 renal.
-4.42

Specify growth for CS(=O)(=O)Nc1ccc(Nc2c3ccccc3nc3cc([N+](=O)[O-])ccc23)cc1 , system CAKI-1 renal.
37.7

Specify growth for COc1ccc2c(c1)C(=O)c1c-2c(OCCN2CCCCC2)nc2ccc(OC)cc12 , system CAKI-1 renal.
-11.5

Specify growth for COc1cc(C(=O)/C=C/c2cc(-c3cc(OC)c(OC)c(OC)c3)n[nH]2)cc(OC)c1OC , system CAKI-1 renal.
8.9

----------
system: M14 melanoma; assay: NCI-60 one-dose screen, 48 h (100 = growth as untreated, 0 = no growth, -100 = all killed); settings: 10 µM
About 83,000 compounds went through this panel and 20% of them were active in at least one assay; those are over-represented in the sample as a whole. Activity calls are given as the source filed them. The calls were made as follows: active = growth percent below 10; inactive = the rest.
READOUT KIND: growth

>>> print(df.to_string())
                                   compound  assay_system               val
0  O=C1OCC2=C1C(c1cccc(Cl)c1)c1cc3c(cc1N2CCO)OCCO3 (stereo unspecified)  M14 melanoma  12.9% (inactive)
1  COc1ccc(-c2nn(-c3cccc(NC(=O)Nc4cc(C(F)(F)F)cc(C(F)(F)F)c4)c3)cc2-c2ccncc2)cc1Cl  M14 melanoma   -34.1% (active)
2     CSc1nn(-c2ccccc2)c2ncnc(Oc3ccccc3)c12  M14 melanoma   102% (inactive)
3                       O=C1NC(=O)c2ncccc21  M14 melanoma  99.9% (inactive)
4  CC(=O)n1c(-c2ccc(Cl)c(Cl)c2)cn(-c2ccc(Cl)cc2)c1=O  M14 melanoma    34% (inactive)

Note: attention shifts to another entry.
Give reported growth value for O=C(CCCCCCC(=O)Nc1cccnc1)NO
29.6% (inactive)

----------
tested on: HT29 colon; experiment: NCI-60 one-dose screen, 48 h (100 = growth as untreated, 0 = no growth, -100 = all killed); details: 10 µM
About 83,000 compounds went through this panel and 20% of them were active in at least one assay; those are over-represented in the sample as a whole.
Recorded growth values for a group of compounds are listed next.
Express your answer in %, writing the number without its unit.

Consider the following illustrative entries.
>>> print(df.to_string())
                                   compound   val
0  O=C(Nc1ccc(Cl)c([N+](=O)[O-])c1)Nc1nc2ccccc2s1  87.3
1  NC(=O)c1ccc(-c2cccc3c(=O)nc(N4CCOCC4)oc23)cc1   101
2  COc1ccc(-c2nn(-c3cccc(NC(=O)c4ccc(Cl)c(Cl)c4)c3)cc2-c2ccncc2)cc1Cl  78.2
3  CN1CCC2(CC1)NC(=O)c1c(c3ccc(Cl)c(Cl)c3n1C)C2C#N (stereo not given)  44.8
4  c1ccc(CSc2nnc3c4c5c(sc4nc(-c4cccnc4)n23)CCCCCC5)cc1  22.4
5  COc1ccc(-c2nn(-c3cccc(NC(=O)Nc4cccc(C(F)(F)F)c4)c3)cc2-c2ccncc2)cc1Cl  2.94
6  CCCCCCCNc1nc(C=O)ncc1-c1ccc(C(F)(F)F)cc1  86.8
7  COc1cc(-c2nc(-c3nnc(-c4ccccc4Cl)o3)c3ccccn23)cc(OC)c1OC  91.4

Give reported growth value for O=C1C(=O)c2ccccc2C(O)=C1CCCc1ccc(C2CCCCCC2)cc1
28.5

Give reported growth value for ClCC#CCSc1ncnc2c1ncn2CC#CCCl
17.7
